Conditions: 303.15 K; 101 kPa; Liquid; Frequency=1 MHz
Reported metric: speed of sound (m/s)
All answers are understood in m/s, so give the number only.

Answered cases to consult:
[
  {
    "Compound": "CCCCOC(C)=O [butyl ethanoate]",
    "Observed value": 1170
  },
  {
    "Compound": "ClC=C(Cl)Cl [trichloroethene]",
    "Observed value": 1016
  },
  {
    "Compound": "CCCOC(C)=O [propyl ethanoate]",
    "Observed value": 1148
  }
]

// below: speed of sound requested for another compound
For CCOC(C)=O [ethyl acetate] the compound record lists speed of sound as 1126

----------
Conditions: 303.15 K; 101 kPa; Liquid
Reported metric: mass density (kg/m3)
All answers are understood in kg/m3, so give the number only.

For CCOC(C)=O [ethyl acetate] the compound record lists mass density as 888.75

For ClC=C(Cl)Cl the compound record lists mass density as 1450.9

For CCCCOC(C)=O [butyl ethanoate] the compound record lists mass density as 871.07

For CCCOC(C)=O [propyl ethanoate] the compound record lists mass density as 876.55

----------
Conditions: 303.15 K; 101 kPa; Liquid
// viscosity lookup, one value per entry
All answers are understood in mPa·s, so give the number only.

Answered cases to consult:
[
  {
    "Compound": "CCOC(C)=O [ethyl acetate]",
    "viscosity, mPa·s": 0.424
  },
  {
    "Compound": "CCCCOC(C)=O [butyl ethanoate]",
    "viscosity, mPa·s": 0.638
  },
  {
    "Compound": "CCCOC(C)=O [propyl ethanoate]",
    "viscosity, mPa·s": 0.547
  }
]

// below: viscosity requested for another compound
For ClC=C(Cl)Cl [trichloroethene] the compound record lists viscosity as 0.589
